Items are presented alongside their recorded IC50.
# Tested on: PDE1
# EXPERIMENTAL DETAILS: In vitro HTRF PDE1 inhibition assay
# Type: biochemical
# STUDY CONDITIONS: HTRF cGMP assay, 100 nM cyclic GMP, PDE (1A3, 1B or 1C) with calmodulin, 45 minutes at 37° C.; isoform of the tabulated values not stated

INSERT INTO assay_data (molecule, property_measured, val) VALUES
  ('O=c1c2cnn(C3CCOCC3)c2nc2n1CCN(Cc1ccc(Cl)cc1)C2', 'IC50', '< 1 µM'),
  ('CCCn1ncc2c(=O)n3c(nc21)CN(Cc1ccc2c(c1)OCO2)CC3', 'IC50', '1 to 10 µM'),
  ('CC(C)Cc1nnc2c(=O)n3c(nn12)CN(Cc1ccccn1)CC3', 'IC50', '1 to 10 µM'),
  ('Cc1ncc(CN2CCn3c(nc4c(cnn4C(C)C)c3=O)C2)cn1', 'IC50', '> 10 µM');

Given the molecule `CC(C)Cc1nnc2c(=O)n3c(nn12)CN(Cc1ccncc1)CC3` , what is its reported IC50?
1 to 10 µM

Given the molecule `O=c1c2cnn(C3CCCC3)c2nc2n1CCN(Cc1ccccc1Cl)C2` , what is its reported IC50?
< 1 µM

Given the molecule COc1ccc(CN2Cc3nc4c(cnn4C(C)C)c(=O)n3CC2C)cc1 (racemic) , what is its reported IC50?
1 to 10 µM

Given the molecule `O=c1c2cnc(C3CCCC3)n2nc2n1CCN(c1ccncc1)C2` , what is its reported IC50?
1 to 10 µM

Given the molecule CC(C)n1ncc2c(=O)n3c(nc21)CN(C)C(c1ccccc1)C3 (racemic) , what is its reported IC50?
> 10 µM

Given the molecule O=c1c2cn[nH]c2nc2n1CCN(Cc1ccccc1)C2Cc1ccccc1 (racemic) , what is its reported IC50?
> 10 µM

Given the molecule `CC(C)n1ncc2c(=O)n3c(nc21)CN(Cc1ccccc1-c1ccccc1)CC3` , what is its reported IC50?
1 to 10 µM

Given the molecule `CC(C)n1ncc2c(=O)n3c(nc21)CN(c1ccc(Cl)cn1)CC3` , what is its reported IC50?
< 1 µM
